- TARGET_OR_SYSTEM: HLA-A*26:01
- ASSAY_PROTOCOL: IEDB peptide-MHC binding, purified MHC/competitive/fluorescence; filed as Kd, often an IC50 or EC50 that approximates it; bounds were set here for any values at or beyond the usual limits of such assays
- SETUP_CONDITIONS: source organism: Lechiguanas virus
pKd: −log10 of the molar value.
METRIC_NAME: pKd

> print(dat)
       chain  metric.name  result.value
1  YRRKLTNPA          pKd        ≤ 4.70

###

- TARGET_OR_SYSTEM: HLA-A*26:03
- ASSAY_PROTOCOL: IEDB peptide-MHC binding, purified MHC/direct/fluorescence; filed as Kd, often an IC50 or EC50 that approximates it; bounds were set here for any values at or beyond the usual limits of such assays
- SETUP_CONDITIONS: source organism: Variola virus
METRIC_NAME: Kd

> print(dat)
       chain  result.value
1  REVFYFGKF       ≥ 20 µM
